Overview of recorded phosphorylation enrichment for various sequences
target: EPHB2 (UniProt P29323); experiment: phosphorylation enrichment, bacterial display (enrichment ratio); higher = better substrate or ligand; peptides without Tyr show the background;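 note: 11-residue human phosphosite peptides and single-mutation variants displayed on the E. coli surface, counted by deep sequencing, each peptide's frequency after selection divided by its frequency in the unselected input library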;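 note: frequency after pTyr selection over input frequency; kinase dosed for 20-30% of maximal phosphorylation in three min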
Sequence (P29323 whole entry, looked up): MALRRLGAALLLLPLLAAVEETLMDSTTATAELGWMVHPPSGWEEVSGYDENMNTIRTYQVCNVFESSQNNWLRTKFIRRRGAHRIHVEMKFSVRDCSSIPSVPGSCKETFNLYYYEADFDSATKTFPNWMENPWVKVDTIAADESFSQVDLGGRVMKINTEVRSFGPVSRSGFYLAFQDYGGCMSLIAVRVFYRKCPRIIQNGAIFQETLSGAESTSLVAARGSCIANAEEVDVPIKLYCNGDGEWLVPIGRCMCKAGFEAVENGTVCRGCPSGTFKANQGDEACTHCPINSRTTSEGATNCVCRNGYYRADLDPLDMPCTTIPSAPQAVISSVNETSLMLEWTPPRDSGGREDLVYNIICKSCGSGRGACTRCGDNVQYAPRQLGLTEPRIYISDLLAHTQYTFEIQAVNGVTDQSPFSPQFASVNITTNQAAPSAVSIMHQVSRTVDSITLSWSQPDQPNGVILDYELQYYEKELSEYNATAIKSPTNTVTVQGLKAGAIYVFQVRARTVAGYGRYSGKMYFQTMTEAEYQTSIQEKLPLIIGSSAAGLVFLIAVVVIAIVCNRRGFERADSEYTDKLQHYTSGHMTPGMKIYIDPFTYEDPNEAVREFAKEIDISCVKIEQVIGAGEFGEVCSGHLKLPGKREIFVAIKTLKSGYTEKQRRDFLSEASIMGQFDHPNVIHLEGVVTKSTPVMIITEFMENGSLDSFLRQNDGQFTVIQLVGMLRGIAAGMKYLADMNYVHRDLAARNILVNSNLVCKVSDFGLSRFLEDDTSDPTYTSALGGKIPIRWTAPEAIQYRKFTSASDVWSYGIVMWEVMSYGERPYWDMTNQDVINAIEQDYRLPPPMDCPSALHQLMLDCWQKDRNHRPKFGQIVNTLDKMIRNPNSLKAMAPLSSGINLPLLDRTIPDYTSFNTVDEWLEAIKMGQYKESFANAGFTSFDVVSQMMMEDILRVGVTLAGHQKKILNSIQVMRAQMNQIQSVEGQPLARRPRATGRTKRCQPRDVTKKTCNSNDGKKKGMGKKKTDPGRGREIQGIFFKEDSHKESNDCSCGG
// return just the number, without any unit appended

Please review the following examples before continuing.
[
  {
    "Ordered Residues": "RRERDYTNLPS [CSF1R_Y923]",
    "Endpoint Label": "phosphorylation enrichment",
    "Result Number": 0.548
  },
  {
    "Ordered Residues": "AQINLYQDVML [ZNF806_Y33]",
    "Endpoint Label": "phosphorylation enrichment",
    "Result Number": 8.39
  }
]

Task item: Item under review: NGSKGYAFVHF [PABPC5_Y147_YF] . Reported phosphorylation enrichment?
Reply: 0.606

Task item: Now consider VRVQLYDPDYM [CYP4A22_Y100] and answer again.
Reply: 0.776

Task item: // repeat for LKSEMYQKLFK [RGS13_Y146_L150F] and report
Reply: 0.614

Task item: Another: HFPDVYAWEQL [ALX3_Y181_R183W_YF]
Reply: 0.935
